// reported % Inhibition (FS) for each item listed
molecular target: β-secretase (BACE) (Homo sapiens); construct: purchased Panvera; assay: BACE FS1 % Inhibition Assay; type: biochemical; conditions: 1 μM test compound; 1 µM
Sequence (P56817 46-501): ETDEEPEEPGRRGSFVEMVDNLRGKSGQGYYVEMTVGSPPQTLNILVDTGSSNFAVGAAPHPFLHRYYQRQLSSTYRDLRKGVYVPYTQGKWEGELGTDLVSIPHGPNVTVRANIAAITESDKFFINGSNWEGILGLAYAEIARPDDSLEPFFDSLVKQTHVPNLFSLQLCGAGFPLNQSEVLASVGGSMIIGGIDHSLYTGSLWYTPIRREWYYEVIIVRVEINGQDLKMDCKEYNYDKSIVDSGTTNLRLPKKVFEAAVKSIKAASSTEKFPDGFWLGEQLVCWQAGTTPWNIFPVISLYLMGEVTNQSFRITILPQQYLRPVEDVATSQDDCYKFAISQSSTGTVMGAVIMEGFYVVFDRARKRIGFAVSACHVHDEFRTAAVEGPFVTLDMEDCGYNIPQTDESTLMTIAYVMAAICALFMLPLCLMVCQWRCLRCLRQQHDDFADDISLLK
outcome_measure: % Inhibition (FS) (%)

[[record]]
molecule = "NC1=Nc2ccc(-c3ccc(F)cc3)cc2CN1CCNC(=O)C1CCCCC1 [Compound 623]"
outcome_measure = "% Inhibition (FS)"
unit_string = "%"
result_operator = "<"
observed_measurement = 30

[[record]]
molecule = "NC1=Nc2ccc(-c3ccc(F)cc3)cc2CN1CCNC(=O)C1CCCCC1 [Compound 624]"
outcome_measure = "% Inhibition (FS)"
unit_string = "%"
result_operator = "="
observed_measurement = 38

[[record]]
molecule = "CCCC(CNC(=O)C1CCCCC1)N1Cc2cc(Oc3ccccc3)ccc2N=C1N (stereo not drawn) [Compound 601]"
outcome_measure = "% Inhibition (FS)"
unit_string = "%"
result_operator = "="
observed_measurement = 115

[[record]]
molecule = "CCCC(CNC(=O)C12CC3CC(CC(C3)C1)C2)N1Cc2cc(Oc3ccccc3)ccc2N=C1N (stereo not drawn) [Compound 555]"
outcome_measure = "% Inhibition (FS)"
unit_string = "%"
result_operator = "<"
observed_measurement = 30

[[record]]
molecule = "CCCC(CNC(=O)C1CCCCC1)N1Cc2cc(Oc3ccccc3)ccc2N=C1N (stereo not drawn) [Compound 554]"
outcome_measure = "% Inhibition (FS)"
unit_string = "%"
result_operator = "<"
observed_measurement = 30

[[record]]
molecule = "CCCC(CNC(=O)C12CC3CC(CC(C3)C1)C2)N1Cc2cc(Oc3ccccc3)ccc2N=C1N (stereo not drawn) [Compound 602]"
outcome_measure = "% Inhibition (FS)"
unit_string = "%"
result_operator = "="
observed_measurement = 113

